assay-system: T1, CD1d-β2m complex (glycosylated CD1d-H6 with untagged β2m) (human, UniProt P15813 20-301; P61769 21-119, glycosylated (N-linked glycans from expression in HEK293F))
T1 construct: CD1d, human, extracellular domain, residues 20-301 of UniProt P15813; expressed behind the vector's N-terminal secretion signal; β-2-microglobulin, human, residues 21-119 of UniProt P61769; untagged; Carries endogenous human lipids as purified; The results call β2m full-length, the methods give residues 21-119; also called CD1d-H 6-β 2m; gCD1d; not shown: His6, C-terminal, kept
protocol-text: equilibrium binding assay (depletion of prey from the supernatant, no wash steps); CD1d-β2m on Ni-NTA agarose beads at 0-40 μM, SapB at 680 nM; 50 mM HEPES pH 7.0, 150 mM NaCl, 0.05% digitonin, 2.5 mM CaCl2, 2.5 mM MgCl2; 1 hour at room temperature; unbound SapB detected by SYPRO Ruby; both proteins with the endogenous lipids they co-purify with
condition-summary: both partners purified
pKd: −log10 of the molar value.
quantity-name: pKd

[[record]]
binder = "Saposin B, untagged, expressed in E. coli (unglycosylated) (natural protein, human, UniProt P07602 195-274, looked up, Saposin B, the segment of human prosaposin (PSAP) residues 195-274, UniProt P07602; Cloned into pET-15b by NcoI and XhoI to give untagged protein; Co-purifies with E. coli lipid; also called SapB; ugSapB; source: E. coli Origami (DE3), purified (heat treatment, anion exchange, SEC)) GDVCQDCIQMVTDIQTAVRTNSTFVQALVEHVKEECDRLGPGMADICKNYISQYSEIAIQMMMHMQPKEICALVGFCDEV"
quantity_name = "pKd"
reported_measurement = "< 4.40"

